- assaySystem: protein-protein interaction between SOS1 and KRAS G12C (Homo sapiens, UniProt Q07889)
- Construct: purchased Cisbio 64KRASG12PEG
- Sequence (Q07889 1-1333): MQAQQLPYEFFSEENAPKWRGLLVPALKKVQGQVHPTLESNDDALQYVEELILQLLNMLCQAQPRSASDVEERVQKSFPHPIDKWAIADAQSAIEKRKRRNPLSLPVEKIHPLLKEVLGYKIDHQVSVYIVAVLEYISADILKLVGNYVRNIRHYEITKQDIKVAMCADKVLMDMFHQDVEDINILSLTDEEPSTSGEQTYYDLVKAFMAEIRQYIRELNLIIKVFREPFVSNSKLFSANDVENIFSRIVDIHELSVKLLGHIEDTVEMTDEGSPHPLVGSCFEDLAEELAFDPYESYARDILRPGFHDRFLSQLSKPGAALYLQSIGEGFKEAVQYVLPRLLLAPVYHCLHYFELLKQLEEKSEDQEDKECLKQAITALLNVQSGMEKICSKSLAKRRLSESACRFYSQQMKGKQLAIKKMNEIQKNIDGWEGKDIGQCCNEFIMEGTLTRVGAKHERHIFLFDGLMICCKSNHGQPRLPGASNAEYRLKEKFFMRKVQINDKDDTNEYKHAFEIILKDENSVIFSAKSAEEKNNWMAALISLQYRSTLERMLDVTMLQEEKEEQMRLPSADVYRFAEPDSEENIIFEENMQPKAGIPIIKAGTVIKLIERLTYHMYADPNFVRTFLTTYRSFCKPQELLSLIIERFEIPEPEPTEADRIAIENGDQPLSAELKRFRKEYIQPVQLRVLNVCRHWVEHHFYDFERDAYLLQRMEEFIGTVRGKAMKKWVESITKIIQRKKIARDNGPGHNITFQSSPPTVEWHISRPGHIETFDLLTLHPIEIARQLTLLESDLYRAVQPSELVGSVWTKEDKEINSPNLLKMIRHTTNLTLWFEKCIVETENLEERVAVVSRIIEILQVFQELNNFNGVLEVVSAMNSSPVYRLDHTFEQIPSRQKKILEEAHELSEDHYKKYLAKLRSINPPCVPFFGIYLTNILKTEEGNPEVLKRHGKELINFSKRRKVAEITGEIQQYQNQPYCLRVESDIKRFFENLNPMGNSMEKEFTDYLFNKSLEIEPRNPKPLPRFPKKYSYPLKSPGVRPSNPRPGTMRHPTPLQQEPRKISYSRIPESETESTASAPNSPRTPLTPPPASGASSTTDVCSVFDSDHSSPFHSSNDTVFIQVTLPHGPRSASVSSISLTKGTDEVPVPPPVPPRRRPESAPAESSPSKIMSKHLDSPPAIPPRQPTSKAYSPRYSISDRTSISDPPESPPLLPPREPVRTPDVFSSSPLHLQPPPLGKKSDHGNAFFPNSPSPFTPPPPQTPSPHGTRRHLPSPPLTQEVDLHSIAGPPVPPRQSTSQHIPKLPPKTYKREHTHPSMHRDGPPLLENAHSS
- experimentalDetails: KRAS::SOS1 HTRF binding analysis (KRAS G12C/SOS1 binding kit)
- conditionParameters: compound at 0.1 uM
propertyLabel: inhibition at 0.1 µM

Examples with answers:
molecule: COC1(C)CN(c2ccc3nncc(N[C@H](C)c4cccc(C(F)F)c4F)c3c2)C1 [Example 33]
assaySystem: protein-protein interaction between SOS1 and KRAS G12C (Homo sapiens, UniProt Q07889)
inhibition at 0.1 µM: 0 to 40%

molecule: C[C@@H](Nc1cnnc2ccc(N3CCC(N(C)C)CC3)cc12)c1cccc(C(F)F)c1F [Example 6]
assaySystem: protein-protein interaction between SOS1 and KRAS G12C (Homo sapiens, UniProt Q07889)
inhibition at 0.1 µM: 40 to 70%

molecule: C[C@@H](Nc1cnnc2ccc(N3C[C@H]4C[C@@H]3CO4)cc12)c1cccc(C(F)F)c1 [Example 44]
assaySystem: protein-protein interaction between SOS1 and KRAS G12C (Homo sapiens, UniProt Q07889)
inhibition at 0.1 µM: 0 to 40%

molecule: C[C@@H](Nc1cnnc2ccc(N3CCN4CCOC[C@@H]4C3)cc12)c1cccc(C(F)F)c1F [Example 9]
assaySystem: protein-protein interaction between SOS1 and KRAS G12C (Homo sapiens, UniProt Q07889)
inhibition at 0.1 µM: 40 to 70%

molecule: C[C@@H](Nc1cnnc2ccc(N[C@@H]3CCN(C)C3)cc12)c1cccc(C(F)F)c1F [Example 38]
assaySystem: protein-protein interaction between SOS1 and KRAS G12C (Homo sapiens, UniProt Q07889)
inhibition at 0.1 µM: 40 to 70%

Looking up C[C@@H](Nc1cnnc2ccc(N3CCC(C)(O)CC3)cc12)c1cccc(C(F)F)c1 [Example 43] , I see its inhibition at 0.1 µM listed as 0 to 40%

Looking up C[C@@H](Nc1cnnc2ccc(N3CCC[C@H](O)C3)cc12)c1cccc(C(F)F)c1F [Example 21] , I see its inhibition at 0.1 µM listed as 40 to 70%

Looking up C[C@@H](Nc1cnnc2ccc(N3CC4CC(C3)O4)cc12)c1cccc(C(F)F)c1 [Example 42] , I see its inhibition at 0.1 µM listed as 0 to 40%

Looking up C[C@@H](Nc1cnnc2ccc(N3C4CCC3COC4)cc12)c1cccc(C(F)F)c1F [Example 15] , I see its inhibition at 0.1 µM listed as 0 to 40%

Looking up C[C@@H](Nc1cnnc2ccc(N3CCC(NC(=O)C4COC4)CC3)cc12)c1cccc(C(F)F)c1F [Example 69] , I see its inhibition at 0.1 µM listed as 40 to 70%

Looking up CO[C@H]1CCCN(c2ccc3nncc(N[C@H](C)c4cccc(C(F)F)c4F)c3c2)C1 [Example 24] , I see its inhibition at 0.1 µM listed as 0 to 40%

Looking up C[C@@H](Nc1cnnc2ccc(N3CC4CC(C3)O4)cc12)c1cccc(C(F)F)c1F [Example 12] , I see its inhibition at 0.1 µM listed as 40 to 70%
